- tested-target: full-length human RORγt (GAL4-DBD-RORγt fusion) in HEK293T cells (Homo sapiens (Human), UniProt P51449)
- Sequence (P51449 other isoform, or with tags, fused parts or gaps): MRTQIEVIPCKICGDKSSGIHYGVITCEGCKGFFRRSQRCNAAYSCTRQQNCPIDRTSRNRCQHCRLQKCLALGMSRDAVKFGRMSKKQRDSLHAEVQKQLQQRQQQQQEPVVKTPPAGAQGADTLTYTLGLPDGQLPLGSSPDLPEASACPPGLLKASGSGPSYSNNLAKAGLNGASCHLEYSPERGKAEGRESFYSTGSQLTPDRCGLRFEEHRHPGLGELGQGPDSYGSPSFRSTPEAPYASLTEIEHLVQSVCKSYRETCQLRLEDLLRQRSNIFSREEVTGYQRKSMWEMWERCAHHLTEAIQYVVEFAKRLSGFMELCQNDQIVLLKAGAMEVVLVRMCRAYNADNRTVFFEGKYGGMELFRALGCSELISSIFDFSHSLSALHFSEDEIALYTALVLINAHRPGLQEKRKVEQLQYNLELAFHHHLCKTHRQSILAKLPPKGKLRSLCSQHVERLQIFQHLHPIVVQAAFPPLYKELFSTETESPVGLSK
- assay-comment: RORγt (full-length human) reporter assay, conditions A or B
- test-context: HEK293T cells; read-out: RORγt (FL) Reporter Assay A or B, IC50
measure-name: IC50
Remember to follow the number with its unit.

Query CCn1nc(C(=O)NC[C@]2(O)CC[C@@H](S(C)(=O)=O)CC2)c(Cl)c1-c1cnc(CC(C(F)(F)F)C(F)(F)F)cc1OC(F)F [Example 22] yields IC50 of 46 nM

Notebook: CCn1nc(C(=O)NC[C@]2(O)CC[C@@H](S(C)(=O)=O)CC2)c(Cl)c1-c1cnc(CCCC(F)(F)F)cc1OC(F)F [Example 33] , IC50 read as 1100 nM

compound CCn1nc(C(=O)NC[C@]2(O)CC[C@@H](S(N)(=O)=O)CC2)c(Cl)c1-c1cnc(CC(C)(C)C(F)(F)F)cc1OC(F)F [Example 1] , IC50 observed: 110 nM

----------
- tested-target: full-length human RORγt (GAL4-DBD-RORγt fusion) in HEK293T cells (Homo sapiens (Human), UniProt P51449)
- assay-comment: RORγt (full-length human) reporter assay, conditions A or B
- Assay type: cell-based
- test-context: HEK-293T; 1 μM compound concentration (footnote ***); read-out: RORγt (FL) Reporter Assay A or B, % inhibition
Assignment: determine reported inhibition at 1 µM for the given molecules.
A number alone suffices; assume %.

The molecule Cc1c(C(=O)NC[C@H]2CC[C@H](S(C)(=O)=O)CC2)nn(C)c1-c1cnc(CC(C)(C)C(F)(F)F)cc1OC(F)F [Example 31] showed inhibition at 1 µM equal to 100

The molecule listed as CCn1nc(C(=O)NC[C@H]2CC[C@H](S(C)(=O)=O)CC2)c(Cl)c1-c1cnc(CC(C(F)(F)F)C(F)(F)F)cc1OC(F)F [Example 21] has a reported inhibition at 1 µM of 120

GET /value?item= CCn1nc(C(=O)NC[C@]2(O)CC[C@@H](S(C)(=O)=O)CC2)c(Cl)c1-c1cnc(CC(C(F)(F)F)C(F)(F)F)cc1OC(F)F [Example 22] &field=inhibition at 1 µM returns 115

Form field inhibition at 1 µM, entry CCn1nc(C(=O)NC[C@]2(O)CC[C@@H](S(C)(=O)=O)CC2)c(C)c1-c1ccc(CC(C)(C)C(F)(F)F)nc1OC(F)F [Example 50] : 100

The molecule identified as CCn1nc(C(=O)NC[C@@]2(O)CC[C@H](S(C)(=O)=O)C[C@@H]2O)c(C)c1-c1cnc(CC(C)(C)C(F)F)cc1OC(F)F (stereo in doubt) [Example 43] registered its inhibition at 1 µM at 84

Looking up CCn1nc(C(=O)NC[C@H]2CC[C@H](S(C)(=O)=O)CC2)c(C)c1-c1cnc(CCCC(F)(F)F)cc1OC(F)F [Example 34] , I found its inhibition at 1 µM recorded as 92

Data point: CCn1nc(C(=O)NC[C@]2(O)CC[C@@H](S(C)(=O)=O)CC2)c(C)c1-c1cnc(CCCC(F)(F)F)cc1OC(F)F [Example 35] ; inhibition at 1 µM = 76

----------
Please provide measured inhibition at 3 µM for the entries that follow.
- tested-target: full-length human RORγt (GAL4-DBD-RORγt fusion) in HEK293T cells (Homo sapiens (Human))
- assay-comment: RORγt (full-length human) reporter assay, conditions A or B
- Type: cell-based
- test-context: HEK-293T; 3 μM compound concentration (footnote *); read-out: RORγt (FL) Reporter Assay A or B, % inhibition
Just the number in %, nothing appended.

Just so you know, measured inhibition at 3 µM for CCc1cc(C[C@@H](C)C(F)(F)F)ncc1-c1c(C)c(C(=O)NC[C@H]2CC[C@H](S(C)(=O)=O)CC2)nn1CC (relative stereo) [Example 58] came out at 23

Field inhibition at 3 µM (entry CCn1nc(C(=O)NC[C@]2(O)CC[C@@H](S(C)(=O)=O)CC2)c(Cl)c1-c1cnc(C[C@@H](C)C(F)(F)F)cc1OC(F)F (single isomer, unassigned) [Example 18] ) reads 100

// CCn1nc(C(=O)NC[C@H]2CC[C@H](S(C)(=O)=O)CC2)c(C)c1-c1cnc(C[C@@H](C)C(F)(F)F)cc1OC(F)F (single isomer, unassigned) [Example 19] : inhibition at 3 µM value = 105

Form: compound = CCc1cc(C[C@@H](C)C(F)(F)F)ncc1-c1c(Cl)c(C(=O)NC[C@]2(O)CC[C@@H](S(C)(=O)=O)CC2)nn1CC (single isomer, unassigned) [Example 56] ; inhibition at 3 µM = 30

The recorded inhibition at 3 µM for entry CCn1nc(C(=O)NC[C@H]2CC[C@H](S(C)(=O)=O)CC2)c(C)c1-c1cnc(CC(C)(C)C(F)F)cc1OC(F)F [Example 41] equals 102

----------
- tested-target: full-length human RORγt (GAL4-DBD-RORγt fusion) in HEK293T cells (Homo sapiens (Human), UniProt P51449)
- assay-comment: RORγt (full-length human) reporter assay, conditions A or B
- test-context: HEK293T cells; read-out: RORγt (FL) Reporter Assay A or B, IC50
Using IC50 as the sorting value, the categories are bottom range: < 40 nM; center range: ≥ 40 nM and < 200 nM; top range: ≥ 200 nM

Prompt: Into which category would you place CCn1nc(C(=O)NC[C@@]2(O)CC[C@H](S(C)(=O)=O)C[C@@H]2O)c(C)c1-c1ccc(CC(C)(C)C(F)(F)F)nc1OC(F)F (relative stereo) ?
Response: bottom range

Prompt: Please report the category associated with CCn1nc(C(=O)NC[C@H]2CC[C@H](S(C)(=O)=O)CC2)c(C)c1-c1cnc(CC(C)(C)C(F)F)cc1OC(F)F , nothing else.
Response: center range

Prompt: Exercise: read the entry CCn1nc(C(=O)NC[C@H]2CC[C@H](S(N)(=O)=O)CC2)c(Cl)c1-c1cnc(CC(C)(C)C(F)(F)F)cc1OC(F)F and state which class it falls under.
Response: bottom range

Prompt: Just checking, what class would you give CCn1nc(C(=O)NC[C@@]2(O)CC[C@H](S(C)(=O)=O)C[C@@H]2O)c(Cl)c1-c1cnc(CC(C)(C)C(F)(F)F)cc1OC(F)F (stereo in doubt) here?
Response: center range

Prompt: # classify by IC50 band: CCn1nc(C(=O)NC[C@H]2CC[C@H](S(C)(=O)=O)CC2)c(Cl)c1-c1cnc(C[C@H](C)C(F)(F)F)cc1OC (single isomer, unassigned)
Response: center range

Prompt: Into which bin does this molecule go? CCn1nc(C(=O)NC[C@]2(O)CC[C@@H](S(C)(=O)=O)CC2)c(C)c1-c1cnc(CC(C)(C)C(F)(F)F)cc1C(F)F
Response: bottom range

Prompt: Please classify: CCn1nc(C(=O)NC[C@]2(O)CC[C@@H](S(C)(=O)=O)CC2)c(Cl)c1-c1cnc(O[C@H](C)C(F)(F)F)cc1OC
Response: center range

Prompt: Any idea which band CCn1nc(C(=O)NC[C@H]2CC[C@H](S(C)(=O)=O)CC2)c(Cl)c1-c1cnc(CC(C)(C)C(F)F)cc1OC(F)F is in?
Response: bottom range

Prompt: Band for the recorded IC50 of CCn1nc(C(=O)NC[C@H]2CC[C@H](S(C)(=O)=O)CC2)c(Cl)c1-c1cnc(CC(C)(C)C(F)(F)F)cc1C(C)C ?
Response: top range

Prompt: Which category does the recorded IC50 put CCn1nc(C(=O)NC[C@H]2CC[C@H](S(C)(=O)=O)CC2)c(Cl)c1-c1cnc(C[C@@H](C)C(F)(F)F)cc1OC (single isomer, unassigned) in?
Response: center range

Prompt: The entry to classify is CCn1nc(C(=O)NC[C@H]2CC[C@H](S(C)(=O)=O)CC2)c(Cl)c1-c1cnc(CC(C)(C)C(F)(F)F)cc1C(C)(F)F ; which class holds it?
Response: top range

Prompt: Exam item: assign Cc1c(C(=O)NC[C@H]2CC[C@H](S(C)(=O)=O)CC2)nn(C)c1-c1cnc(CC(C)(C)C(F)(F)F)cc1OC(F)F to the correct category.
Response: center range

----------
Please respond with reported pIC50 for every item in the list.
- tested-target: full-length human RORγt (GAL4-DBD-RORγt fusion) in HEK293T cells (Homo sapiens (Human))
- assay-comment: RORγt (full-length human) reporter assay, conditions A or B
- test-context: HEK293T cells; read-out: RORγt (FL) Reporter Assay A or B, IC50
As a rule, pIC50 stands for the negative log10 of the concentration, concentration in M.

Looking up CCc1cc(C[C@@H](C)C(F)(F)F)ncc1-c1c(Cl)c(C(=O)NC[C@H]2CC[C@H](S(C)(=O)=O)CC2)nn1CC (relative stereo) [Example 57] , I found its pIC50 recorded as 6.47

// recorded pIC50 for CCn1nc(C(=O)NC[C@H]2CC[C@H](S(C)(=O)=O)CC2)c(C)c1-c1ccc(CC(C)(C)C(F)(F)F)nc1OC(F)F [Example 49] : 8.19

So for Cn1nc(C(=O)NC[C@H]2CC[C@H](S(C)(=O)=O)CC2)c(Cl)c1-c1cnc(CC(C)(C)C(F)(F)F)cc1OC(F)F [Example 30] , the logged pIC50 turned out to be 7.00
